B1: Calcium-binding protein 2, residues 155 to 219; numbered along this chain, Q9NPB3 (parent)
chain: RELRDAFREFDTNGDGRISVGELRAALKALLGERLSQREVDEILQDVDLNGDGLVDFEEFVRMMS

Variants of: B1
Assay: abundance fitness (aPCA) (normalised: wild type 0, dead -1); higher = more abundant; growth selection in yeast, the domain comes from the species named
Settings: Homo sapiens
Measured abundance fitness of individual entries
observation_type: abundance fitness

>>> reported_value("R17E")
-0.295
>>> reported_value("R17V")
-0.158
>>> reported_value("I18H")
-0.917
>>> reported_value("E33C")
0.006
>>> reported_value("V55L")
-0.028
>>> reported_value("D11C")
-0.546
>>> reported_value("G32M")
-0.567
>>> reported_value("A29R")
0.047
>>> reported_value("T12Q")
-0.148
>>> reported_value("D5P")
-0.665
>>> reported_value("L35M")
-0.399
>>> reported_value("L35W")
0.045
>>> reported_value("V20Q")
-0.005
>>> reported_value("A6K")
0.157
>>> reported_value("Q37S")
-0.104
>>> reported_value("T12G")
-0.04
>>> reported_value("V55N")
-0.714
>>> reported_value("A6H")
-0.479
>>> reported_value("L23F")
-0.235
>>> reported_value("E9L")
-0.201
>>> reported_value("N50I")
-0.488
>>> reported_value("E9R")
0.085
>>> reported_value("I43E")
0.038
>>> reported_value("G16A")
-0.332
>>> reported_value("G16L")
-0.669
>>> reported_value("V40C")
-0.086
>>> reported_value("D5C")
-0.178
>>> reported_value("F60K")
-1.08
>>> reported_value("E22Y")
-0.814
